B1: PhoQ; a variant is named by its letters at X, in order, P23837 (parent)
chain: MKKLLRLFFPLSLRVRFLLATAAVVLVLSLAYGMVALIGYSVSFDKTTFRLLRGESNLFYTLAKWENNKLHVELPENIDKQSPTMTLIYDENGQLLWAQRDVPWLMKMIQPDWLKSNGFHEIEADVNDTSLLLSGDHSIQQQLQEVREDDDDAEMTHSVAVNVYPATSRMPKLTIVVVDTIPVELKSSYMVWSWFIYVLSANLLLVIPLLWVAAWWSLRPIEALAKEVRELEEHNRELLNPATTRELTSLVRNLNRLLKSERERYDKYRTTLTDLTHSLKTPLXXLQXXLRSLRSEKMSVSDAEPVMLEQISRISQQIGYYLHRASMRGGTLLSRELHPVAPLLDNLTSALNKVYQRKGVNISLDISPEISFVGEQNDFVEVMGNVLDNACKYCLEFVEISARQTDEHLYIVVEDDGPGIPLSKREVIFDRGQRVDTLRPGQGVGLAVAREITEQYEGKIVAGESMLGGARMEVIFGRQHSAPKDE

variants of: B1; experiment: enrichment ratio after two sorts for PhoP signalling (ratio (wild type AVST 3.29)); higher = more functional; conditions: with PhoP (E. coli)
In all, about 140,000 sequences were measured (“enrichment ratio after two sorts for PhoP signalling”: median about 0, highest 2% from about 11 on). For the sample, the highest values were picked, then their nearest neighbours and some sequences at random.

Residue Change	enrichment ratio
FSSR	≤ 0.25
KSGI	≤ 0.25
MMLA	≤ 0.25
ADMQ	≤ 0.25
VHGF	≤ 0.25
WPGL	≤ 0.25
LLLD	≤ 0.25
FQAN	≤ 0.25
AMPV	≤ 0.25
KCGI	≤ 0.25
QNPQ	≤ 0.25
AMMD	≤ 0.25
KKII	≤ 0.25
FGMP	≤ 0.25
CFGF	≤ 0.25
ELWP	≤ 0.25
DTFW	≤ 0.25
KCGF	≤ 0.25
RSIL	≤ 0.25
NMMI	≤ 0.25
WTKP	≤ 0.25
YFEP	≤ 0.25
PAYK	≤ 0.25
MYIN	≤ 0.25
YVYD	≤ 0.25
